Just for reference, patent US4418077A is where these values come from.

# Procedure text: Toxicity in mice (weight loss and deaths), observed up to 12 days
# Format: in vivo
# Condition: mouse, in vivo, ip, daily dose 1 mg/kg for 4 days, observed up to 12 days, read-out: Mortality (After Treatment)
# Procedure: A group of 10 male albino CD1 mice from Charles Riner, France, is given an i.p. injection of the test compound in aqueous solution daily for four consecutive days. Half of the animals are killed by decapitation 24 hours after the last dose fo the test compound. The other half of the animals are observed for up to 12 days for toxicity (as indicated by weight loss and deaths). Control animals receive an injection of the vehicle only.
Value type: mortality at 288 h

- NC(CF)C(F)C(=O)O (stereo not shown) [2,4-difluoro-3-amino-butyric acid, 2,4-DIFLUORO-3-AMINO-BUTYRIC ACID]: 0%
